experimental_target: Muscarinic acetylcholine receptor M1 (Homo sapiens, UniProt P11229)
Sequence (P11229 whole entry): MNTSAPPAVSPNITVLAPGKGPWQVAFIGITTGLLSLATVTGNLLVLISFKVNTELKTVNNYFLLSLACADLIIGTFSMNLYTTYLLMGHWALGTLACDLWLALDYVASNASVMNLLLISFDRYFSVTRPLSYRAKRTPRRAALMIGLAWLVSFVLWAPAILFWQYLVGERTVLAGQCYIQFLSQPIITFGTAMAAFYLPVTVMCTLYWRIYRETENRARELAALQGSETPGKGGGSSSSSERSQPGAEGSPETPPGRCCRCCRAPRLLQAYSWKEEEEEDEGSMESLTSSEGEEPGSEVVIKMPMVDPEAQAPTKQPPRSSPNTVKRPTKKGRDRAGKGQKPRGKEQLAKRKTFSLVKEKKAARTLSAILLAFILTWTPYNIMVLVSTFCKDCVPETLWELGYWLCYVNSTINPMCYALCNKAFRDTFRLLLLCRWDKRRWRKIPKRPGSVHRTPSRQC
assay_details: Positive allosteric modulation of muscarinic M1 receptor expressed in CHO cells assessed as effect on acetylcholine-induced intracellular calcium mobilization after 1 hr by FLIPR assay
quantity: pEC50
Keep it numeric: pEC50 is minus log10 of the concentration in mol/L.

Q. Give its pEC50 value. Item: O=C1C(=O)N(Cc2ccc(Br)cc2)c2ccccc21
A. 5.21
